Every entry's value here was drawn from the supplement of paper PMC11732987.

molecular target: ATXN3 (UniProt P54252); test: log2 ratio of Biotin-Ahx-Ub-VS probe labelling (fragment/DMSO); higher = less target engagement (more negative = stronger competition), active = hit call of the paper (q ≤ 0.05, log2 ratio ≤ -1); details: compound concentration: 200 uM; treatment time: 3 h
Sequence (P54252 whole entry, the tested form may be a part): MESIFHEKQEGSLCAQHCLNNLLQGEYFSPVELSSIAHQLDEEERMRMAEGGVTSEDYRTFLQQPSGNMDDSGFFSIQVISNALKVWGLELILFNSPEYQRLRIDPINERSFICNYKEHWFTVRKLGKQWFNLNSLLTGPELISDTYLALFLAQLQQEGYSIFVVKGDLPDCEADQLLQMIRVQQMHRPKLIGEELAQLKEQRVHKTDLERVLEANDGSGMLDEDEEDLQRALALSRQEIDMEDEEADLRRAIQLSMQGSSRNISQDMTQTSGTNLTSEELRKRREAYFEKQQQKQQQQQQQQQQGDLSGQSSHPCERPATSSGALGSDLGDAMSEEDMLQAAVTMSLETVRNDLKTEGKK
Possible outcomes: true (1) for active, false (0) for inactive

                                    molecule  answer_label
 0  O=C(CCl)N1CCCC1c1ccsc1 (stereo not drawn)      true (1)
 1                 O=C(CCl)N(C1=CCCCC1)C1CC1     false (0)
 2                   COc1ccc(Cl)cc1NC(=O)CCl     false (0)
 3  Cc1ccc(CC(CO)CNC(=O)CCl)cc1 (stereo not drawn)     false (0)
 4             O=C(CCl)N1CCC(OCc2ccccc2F)CC1     false (0)
 5  O=C(CCl)N1CCC(C(O)c2ccc(F)cc2)CC1 (stereo not drawn)     false (0)
 6           COc1ccc(-c2csc(NC(=O)CCl)n2)cc1     false (0)
 7             Cl.Cn1cnc2cc(CNC(=O)CCl)ccc21     false (0)
 8  Cc1ccc(N(C(=O)CCl)C2C=CS(=O)(=O)C2)cc1 (stereo not drawn)     false (0)
 9                 COc1ccc(CN(C)C(=O)CCl)cc1     false (0)
10  CC(NC(=O)CCl)c1cccc2ccccc12 (stereo not drawn)     false (0)
11        O=C(CCl)NC1(c2ccc3c(c2)OCCO3)CCCC1     false (0)
12        Cc1cc(C(=O)NC2CCN(C(=O)CCl)CC2)no1     false (0)
13       Cc1c(NC(=O)CCl)c(=O)n(-c2ccccc2)n1C     false (0)
14              Cc1ccc(C(=O)NCCNC(=O)CCl)cc1     false (0)
15    O=C(CCl)NCCC1COCCO1 (stereo not drawn)     false (0)
16          CN(Cc1nc2ccccc2[nH]1)C(=O)CCl.Cl     false (0)
17             CS(=O)(=O)N1CCCN(C(=O)CCl)CC1     false (0)
18               Cl.O=C(CCl)N1CCn2ncc(O)c2C1      true (1)
19  O=C(CCl)NC1CCS(=O)(=O)c2ccccc21 (stereo not drawn)     false (0)
20                Cc1ccc(CN(CCO)C(=O)CCl)cc1     false (0)
21               Cc1ncc2c(n1)CCN(C(=O)CCl)C2     false (0)
22  CCC(NC(=O)CCl)c1ccc(Cl)cc1 (stereo not drawn)     false (0)
23                   O=C(CCl)N1CC2(CCOCC2)C1     false (0)
24  CCN1C(=O)C2CN(C(=O)CCl)CCN2C1=O (stereo not drawn)     false (0)
25   O=C(CCl)NC1CCCCNC1=O (stereo not drawn)     false (0)
26         O=C(CCl)Nc1cccc(NC(=O)c2ccccc2)c1     false (0)
27  CC(O)CC1CCN(C(=O)CCl)CC1 (stereo not drawn)     false (0)
28  CC(c1ccccc1)N(C)C(=O)CCl (stereo not drawn)     false (0)
29                  O=C(CCl)N1CCC(=C(F)CO)C1     false (0)
30            O=C(CCl)N1CCC(C(=O)N2CCCC2)CC1     false (0)
31                      O=C(CCl)NCCC1=CCCCC1     false (0)
32               CCc1c[nH]c(CNC(=O)CCl)n1.Cl     false (0)
33             Cc1nc(CNC(=O)CCl)c2ccccn12.Cl     false (0)
34  O=C(CCl)N1CCC(c2ccn[nH]2)C1 (stereo not drawn)     false (0)
35      O=C(CCl)N1CCCN(C(=O)c2ccc(Cl)cc2)CC1     false (0)
36                 O=C(CCl)Nc1ccccc1C(F)(F)F     false (0)
37  O=C(CCl)N1CCCCCC1c1ncon1 (stereo not drawn)     false (0)
38            O=C(CCl)N1CCc2[nH]c3ccccc3c2C1     false (0)
39              Cl.O=C(CCl)NC1(c2ncccn2)CCC1     false (0)
40  Cl.Cn1ncc2c1CCCC2NC(=O)CCl (stereo not drawn)     false (0)
41   Cl.O=C(CN1CCN(C(=O)CCl)CC1)Nc1ccc(F)cc1     false (0)
42                     O=C(CCl)N1CCc2sccc2C1     false (0)
43            Cl.O=C(CCl)N1CCN(Cc2ccccc2)CC1     false (0)
44                       Cc1ncsc1CCNC(=O)CCl     false (0)
45                CC(=O)Nc1ccc(NC(=O)CCl)cc1     false (0)
46            CS(=O)(=O)c1ccc(CNC(=O)CCl)cc1     false (0)
47                  O=C(CCl)NCc1noc(C2CC2)n1     false (0)
